Ref: the supplement of paper PMC9112550

- Tested on: Escherichia coli TOP10;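 also: peptides expressed intracellularly from a pBAD plasmid library in pooled LB shake-flask culture, induced with 0.3% L-arabinose, DNA abundance read by NGS, three biological replicates, DESeq2 with apeglm shrinkage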
- Experiment Notes: shrunken log2 fold change of peptide-encoding DNA abundance (4.5 h post-induction vs induction); higher = less antimicrobial activity (less host growth inhibition)
- Reported Conditions: time post-induction: 4.5 h; library: site-saturation at positions 5, 18, 19, 20
Property: shrunken log2 fold change
Just the number.

Prompt: Record request: shrunken log2 fold change value, item RRIRRRPPRLPRPRPRPYGHPRP
Completion: -0.198

Prompt: Record request: shrunken log2 fold change value, item RRIRCRPPRLPRPRPRPVGYPRP
Completion: 0.0595

Prompt: Record request: shrunken log2 fold change value, item RRIRPRPPRLPRPRPRPKTDPRP
Completion: -0.0446

Prompt: Record request: shrunken log2 fold change value, item RRIRWRPPRLPRPRPRPKRPPRP
Completion: 0.873

Prompt: Record request: shrunken log2 fold change value, item RRIRFRPPRLPRPRPRPHEHPRP
Completion: -0.135
